Record form. Attribute: pKi. Fill in for each entry.
- assay-system: Adenosine receptor A1 (Rattus norvegicus)
- Sequence (P25099 whole entry): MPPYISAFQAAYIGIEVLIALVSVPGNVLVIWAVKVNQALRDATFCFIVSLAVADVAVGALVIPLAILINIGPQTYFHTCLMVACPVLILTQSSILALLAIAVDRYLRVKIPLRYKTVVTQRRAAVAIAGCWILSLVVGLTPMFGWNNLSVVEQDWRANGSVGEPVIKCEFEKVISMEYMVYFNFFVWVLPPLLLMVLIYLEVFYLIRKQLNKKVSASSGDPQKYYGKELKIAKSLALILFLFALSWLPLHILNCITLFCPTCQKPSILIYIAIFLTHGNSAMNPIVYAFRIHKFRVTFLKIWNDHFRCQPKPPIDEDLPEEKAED
- method: Binding affinity towards adenosine A1 receptor using [3H]N-cyclohexyladenosine in rat whole brain membranes.
Numbers only, as −log10 of the molar value.

CCCc1nnc2c(NC3CCCC3)nc3ccccc3n12    7.41

Required: pKi, one value per compound below.
1. c1ccc2c(c1)nc(NC1CCCC1)c1nncn12
2. Cc1nnc2c(NC3CCCC3)nc3ccccc3n12
3. CCc1nnc2c(NC3CCC3)nc3ccccc3n12
4. CCc1nnc2c(NC3CCCCC3)nc3ccccc3n12

**A:**
6.74
7.47
7.24
7.10
